Value source: ChEMBL document CHEMBL5370664

- assayed system: Transthyretin (Homo sapiens, UniProt P02766, V50M)
- test name: Binding affinity to recombinant N-terminal hexa-histidine tagged TTR V30M mutant (unknown origin) expressed in Escherichia coli assessed as quenching of intrinsic tryptophan fluorescence by measuring apparent dissociation constant incubated for 60 mins by fluorescence based analysis
- measurement parameters: read-out: Kd(app)
assay metric: Kd (µM)

molecule | assay metric | observed result
Oc1cc(O)cc(/C=C/c2ccc(O)cc2O)c1 | Kd | 2.4
Oc1cc(O)cc(/C=C/c2c(O)cccc2O)c1 | Kd | 14
COc1cc(/C=C/c2ccc(OC)c(OC)c2)cc(OC)c1 [(E)-3,4,3',5'-TETRAMETHOXYSTILBENE] | Kd | 6.9
COc1ccc(/C=C/c2cc(OC)cc(OC)c2)cc1 | Kd | 4.1
COc1cc(/C=C/c2ccc(O)cc2)cc(OC)c1 | Kd | 1.9
COc1cc(/C=C/c2cc(O)cc(O)c2)ccc1O | Kd | 0.73
Oc1ccc(/C=C/c2cc(O)cc(O)c2)cc1 | Kd | 1.4
COc1cc(O)cc(/C=C/c2ccc(O)cc2)c1 | Kd | 1.2
Oc1cc(O)cc(/C=C/c2ccc(O)c(O)c2)c1 | Kd | 2.1
